Below is a list of entries, each paired with its recorded pKd value.
Target: S1 (Novus Biologicals NBP2-90985) (SARS-CoV-2, UniProt P0DTC2 14-685)
Assay: SPR
No end group written: not given here.
In textbook form, pKd equals minus log to base ten of the concentration in mol/L.

The following binders have reported results that may help.
binder	quantitative-result
ACANPDNPVCRFYCA (not fully specified (bridges); also: bicyclic peptide, scaffold not named) [E5 Bicycle (canonical exemplar of epitope group 5)]	7.62
ACPYVAGRGTCLLCA (not fully specified (bridges); also: Bicycle) [E2 Bicycle (canonical exemplar of epitope group 2)]	6.08
ACEYVGPMCYRLYCA (not fully specified (bridges); also: Bicycle) [E1 Bicycle (exemplar of epitope group 1)]	5.29
ACMNPFFYDCETVCA (not fully specified (bridges); also: bicyclic peptide, scaffold not named) [E9 Bicycle (exemplar of epitope group 9)]	5.42
ACEDNDWVYCSTCA (not fully specified (bridges); also: Bicycle) [E3 Bicycle (exemplar of epitope group 3)]	5.60

Now examine the next entry.
Reported pKd ( ACIPLDWTCMIACA (not fully specified (bridges); also: bicyclic peptide, scaffold not named) [E4 Bicycle (exemplar of epitope group 4)] ) = 5.54

Origin of measurements: paper PMC10275983
